Reference source: PubChem BioAssay

# procedure summary: compound binding in COS7 lysate, probe aLAP1, primary screen, cell lysate, small-molecule microarray (AID 1124);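 note: lysate comes from COS7 cells expressing LAP1 and is applied at 0.3 µg/mL; score merges spot fluorescence near 667 nm with signal-to-noise over triplicate slides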
# experimental context: probe aLAP1, fluorescence, higher = more signal
Known composite z-score of a selection of compounds

compound	composite z-score
CN(C)CCCCCCNC(=O)[C@H]1C[C@H]2C(=O)N[C@@H](CCCCN)C(=O)N2[C@H]1c1cccc(OCCO)c1	0.952
O=C1O[C@@H](c2ccccc2)[C@@H](c2ccccc2)N2[C@@H](c3ccccc3OCCO)[C@]3(C(=O)Nc4ccc(C#CC5=CCCCC5)cc43)[C@@H](C(=O)N3CCCCCCC3)[C@H]12	1.29
COC(=O)C(CC#Cc1ccc2c(c1)[C@]1(C(=O)N2)[C@H](c2ccc(OCCO)cc2)N2[C@H](c3ccccc3)[C@H](c3ccccc3)OC(=O)[C@H]2[C@@H]1C(=O)N1CCc2cc(OC)c(OC)cc2C1)C(=O)OC	0.397
O=C1O[C@H](c2ccccc2)[C@H](c2ccccc2)N2[C@H]1[C@@H](C(=O)N1CCCCCCC1)[C@]1(C(=O)Nc3ccc(C#CCCO)cc31)[C@H]2c1ccccc1OCCO	1.3
C=CCC(OC(C)=O)[C@@H]1[C@@H](N(Cc2cccc3ccccc23)C(=O)c2ccc(-c3ccccc3)cc2)c2cc(OCCCO)ccc2N1C(=O)c1ccc2ccccc2c1 (stereo partly drawn)	0.169
COC(=O)C(CC#Cc1ccc2c(c1)[C@]1(C(=O)N2)[C@H](C(=O)Nc2nc3ccccc3s2)[C@H]2C(=O)O[C@H](c3ccccc3)[C@H](c3ccccc3)N2[C@@H]1c1ccccc1OCCO)C(=O)OC	0.636
C[C@H]1C2[C@H](Cc3ccccc3)NC(=O)[C@]23C(=O)N[C@H](Cc2ccccc2)C(=O)N2CCC[C@H]2C(=O)NC/C=C\C/C=C/C3[C@@H]2O[C@]12C (stereo partly drawn)	0.249
CN(C)CCCCCCNC(=O)[C@H]1C[C@H]2C(=O)N3CCC[C@H]3C(=O)N2[C@H]1c1ccc(O)cc1	0.81
CC(C)N1C(=O)c2ccccc2[C@](C)(C(=O)NCCN2CCOCC2)[C@@H]1c1ccc(CO)cc1	0.385
C=CCN1C(=O)[C@@]2(CC=C)N=C(c3ccc(OCCCO)cc3)O[C@H]2c2ccccc21	1.05
CN1C(=O)C2C=CC(C(O)c3ccccc3)N(N(c3ccccc3)c3ccccc3)C2C1=O (stereo not drawn)	1.34
C=C(C)[C@@H]1CC=C(C(O)C2C=CC3C(=O)N(C)C(=O)C3N2Nc2ccccc2)CC1 (stereo partly drawn)	0.201
CCCCN1CC=CC23O[C@@H]4C=CCCOC(=O)C4[C@H]2C(=O)N(CCCCCCO)[C@@H]3C1=O (stereo partly drawn)	0.316

---

# procedure summary: E. coli DRC41 culture turbidity changes, primary screen, E. coli filamentation inducer project, strain DRC41, OD650, 48 h (AID 1152);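 note: E. coli MC1000 strain DRC41 lacking acrAB efflux pump and sulA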
# experimental context: E. coli DRC41 (acrAB sulA), higher = more signal, called active from +8 up or from −8 down

compound	z-score
C=C(CCCC)/C(=C/C[C@@H](OC(=O)c1ccncc1)c1ccc(OCCO)cc1)c1cc(C(=O)OC)ccc1OC	0.4
COc1cc(Br)cc(C(O)C2C=CC3C(=O)N(C)C(=O)C3N2N2CCCCC2)c1OC (stereo not drawn)	-1.8
C=C(COC)/C(=C/C[C@H](OC(C)=O)c1ccc(CO)o1)c1cc(C(=O)OC)ccc1OC	0.506

---

# procedure summary: small-molecule microarray binders of probe aCHRDL2, primary screen, biochemical, biotinylated probe, 635/667 nm fluorescence (AID 1100)
# experimental context: higher = more signal
In this section we review reported composite z-score values for a set of molecules.

molecule	composite z-score
O=C(NCCN1CCOCC1)[C@@H]1c2ccccc2C(=O)N(C2CCCCC2)[C@H]1c1ccc(CO)cc1	0.92
C=C(CC1([C@@H](NP(=O)(c2ccccc2)c2ccccc2)[C@H]2C[C@@H]2CCCC)CC1)c1ccccc1	0.994
C=CCOC(=O)[C@H]1[C@@H]2C(=O)O[C@@H](c3ccccc3)[C@@H](c3ccccc3)N2[C@@H](c2ccc(OCCOC(=O)[C@@H]3C[C@@H]4C(=O)N[C@@H](CCCCNC(C)=O)C(=O)N4[C@@H]3c3ccc(O)cc3)cc2)[C@]12C(=O)Nc1ccccc12	-0.187
CO[C@H]1O[C@H](CO)[C@@H](OC(=O)Nc2ccc(C(F)(F)F)cc2)[C@H](OC(=O)Nc2ccc3c(c2)OCO3)[C@@H]1OC(=O)Nc1ccc2c(c1)OCO2	0.284
O=C1OCCC/C=C\[C@H]2OC34C=CCN(Cc5ccccc5)C(=O)[C@H]3N(CCCO)C(=O)[C@@H]4C12 (some centres undefined)	0.794
CC#CC(=O)Oc1ccccc1C=CC(=O)OCC	-0.226
C=CC[C@]1(C(=O)NCc2ccccc2)N=C(c2ccc(OCCCO)cc2)O[C@H]1c1ccccc1N=[N+]=[N-]	1.11
NCCCCCCNC(=O)[C@@H]1C[C@@H]2C(=O)NCC(=O)N2[C@@H]1c1ccc(O)cc1	-0.0743
CCOC(=O)C1=C[C@@H](C(C)(C)C)N(S(=O)(=O)c2ccc(C)cc2)[C@H]1c1ccc(F)cc1	0.4
CCC[C@@H]1C[C@@]1(CCC)[C@@H](NC(=O)c1ccccc1)c1cccc(Cl)c1	0.958
C=C(COC)C(=O)CC[C@@H](OC(C)=O)c1ccc(CO)o1	-0.45
O=C1NC(=O)C2C1C=CC(C(O)c1cccs1)N2Nc1ccc(Cl)cc1Cl (centres undefined)	1.03
COCCOC(=O)N1C(=O)[C@@]2(c3cc(C#Cc4ccc(OC)cc4)ccc31)[C@H](c1ccccc1OCCO)N1[C@H](c3ccccc3)[C@H](c3ccccc3)OC(=O)[C@H]1[C@@H]2C(=O)NC[C@H](O)c1ccccc1	0.145
C=CCOC(=O)[C@H]1[C@@H]2C(=O)O[C@@H](c3ccccc3)[C@@H](c3ccccc3)N2[C@@H](c2ccc(OCCOC(=O)[C@@H]3C[C@@H]4C(=O)N[C@@H](CC(C)C)C(=O)N4[C@@H]3c3ccc(O)cc3)cc2)[C@]12C(=O)Nc1ccccc12	0.257

---

# Tested on: Wnt5a (protein binding on small-molecule microarray)
# procedure summary: Wnt5a binders on small-molecule microarray, primary screen, biophysical, 635/667 nm fluorescence (AID 1142);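 note: fluorescence read at 667 nm with signal to noise per printed feature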
# experimental context: 635 nm fluorescence, higher = more signal
The entries below are paired with their reported composite z-score.
endpoint name: composite z-score

compound structure string	measured number
C[N+](C)(C)CCCCNC(=O)[C@H]1C[C@H]2C(=O)N3CCC[C@H]3C(=O)N2[C@H]1c1cccc(OCCO)c1	0.0504
CCOC(=O)C[C@H]1[C@H](OC(=O)c2ccc(C(=O)c3ccccc3)cc2)[C@@H](NC(=O)CC(C)C)c2cc(OCCCO)ccc2N1C(=O)c1ccc2ccccc2n1	0.188
COc1ccc([Si](C)(C)[C@H]2[C@H](CC(=O)N3Cc4ccccc4C[C@H]3CO)O[C@@]3(C(=O)N(Cc4cccc(N5CCC5=O)c4)c4ccccc43)[C@@H]2C)cc1	0.512
COC(=O)C(CC#Cc1ccc2c(c1)[C@]1(C(=O)N2)[C@H](c2ccc(OCCO)cc2)N2[C@H](c3ccccc3)[C@H](c3ccccc3)OC(=O)[C@H]2[C@@H]1C(=O)N1CCc2cc(OC)c(OC)cc2C1)C(=O)OC	0.714
COC(=O)[C@@]1(CCS(=O)(=O)c2ccccc2)N=C(c2ccc(OCCCO)cc2)O[C@H]1c1ccccc1CN=[N+]=[N-]	0.351
COc1ccc(CCNC(=O)[C@@]2(Sc3ccc(C)cc3)CC(=O)N(C(C)C)[C@@H]2c2ccc(CO)cc2I)cc1	-0.161

---

# procedure summary: S. cerevisiae RM11-1a growth modifiers, primary screen, strain RM11-1a, OD600, basal, 24 h (AID 1177);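 note: cultures grown under basal conditions with no added stressor; test concentration not given here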
# experimental context: OD600, 24 h, higher = more signal, called active from +8 up or from −8 down
endpoint name: z-score

molecule	measured number
CC(C)NC(=O)[C@@]1(c2ccc([N+](=O)[O-])cc2)CC(=O)N(C2CCCCC2)[C@@H]1c1ccc(CO)cc1I	1.4
CCOC(=O)C[C@H]1[C@H](OC(=O)c2ccc(C(=O)c3ccccc3)cc2)[C@@H](NC(=O)c2ccc3ccccc3n2)c2cc(OCCCO)ccc2N1C(=O)c1ccccc1	-0.0492
C=CCN1C(=O)[C@@]2(CC=C)N=C(c3ccc(OCCCO)cc3)O[C@H]2c2ccccc21	0.113
COc1ccc(C#Cc2ccc3c(c2)[C@]2(C(=O)N3)[C@H](C(=O)NC[C@H](O)c3ccccc3)[C@H]3C(=O)O[C@H](c4ccccc4)[C@H](c4ccccc4)N3[C@@H]2c2ccc(O)cc2)cc1	2.29
CC(C)c1ccc(NN2C(C(O)c3ccc(B(O)O)cc3)C=CC3C(=O)N(c4ccccc4)C(=O)C32)cc1 (stereo not drawn)	0.728
CCCCCCc1nc(-c2ccc(OC)nc2)cc2c1[Si](C(C)C)(C(C)C)O[C@H]2c1ccccc1	0.056
C=CC(=C)[C@H]1Oc2ccccc2S(=O)(=O)N2CCC[C@@H]12	-0.377
O=C1N[C@@H](Cc2ccccc2)C(=O)N2[C@@H]1C[C@@H](C(=O)O)[C@H]2c1cccc(OCCO)c1	0.346
